Molecular target: P2Y purinoceptor 12 (Homo sapiens, UniProt Q9H244)
Sequence (Q9H244 whole entry): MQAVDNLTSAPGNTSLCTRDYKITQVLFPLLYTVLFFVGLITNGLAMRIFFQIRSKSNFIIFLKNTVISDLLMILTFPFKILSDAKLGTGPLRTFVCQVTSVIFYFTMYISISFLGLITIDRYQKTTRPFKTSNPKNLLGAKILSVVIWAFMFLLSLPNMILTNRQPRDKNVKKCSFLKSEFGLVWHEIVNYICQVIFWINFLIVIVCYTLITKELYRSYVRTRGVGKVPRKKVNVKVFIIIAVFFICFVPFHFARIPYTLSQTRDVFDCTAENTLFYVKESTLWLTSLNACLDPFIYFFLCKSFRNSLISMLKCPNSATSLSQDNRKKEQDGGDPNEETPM
Experiment: Displacement of [33P]2MeS-ADP from P2Y12 receptor (unknown origin) transfected in CHO cells after 30 mins by scintillation counting analysis
pIC50: −log10 of the molar value.
reported_property: pIC50

Some compounds with known pIC50 results, for comparison:
> print(dat)
                                   compound  result
1  CCCC(=O)c1cnn(-c2ccc(NC(=O)c3cn(CC(=O)N(C)C4CCN(C)C4)c4ccc(C)cc34)cc2)c1C (stereo not given)    7.33
2  CCCC(=O)c1cnn([C@H]2CC[C@H](NC(=O)c3cn(CC(=O)N4CCN(C)CC4)c4ccc(Cl)cc34)CC2)c1C    7.40
3  CCCC(=O)c1cnn(-c2ccc(NC(=O)c3cn(CC(=O)N4CCN(CC(F)(F)F)CC4)c4ccc(C)cc34)cc2)c1C    7.18
4  CCCC(=O)c1cnn(-c2ccc(NC(=O)c3cn(CC(=O)N(C)CC4CCCN(C)C4)c4ccc(C)cc34)cc2)c1C (stereo not given)    7.08

P. CCCC(=O)c1cnn(-c2ccc(NC(=O)c3cn(CC(=O)N4CCCCC4CN4CCCC4)c4ccc(C)cc34)cc2)c1C (stereo not given)
Q. CCCC(=O)c1cnn(-c2ccc(NC(=O)Nc3cc(C)ccc3OCCCC(=O)O)cc2)c1C
Asked: // pick min by pIC50: P , Q Pick one; state its label.
Given back: P
(P: 7.00, Q: 7.77)
